# Tested on: Jurkat
# method-notes: cell count relative to DMSO control (fraction of control); higher = more cells (less growth inhibition)
# condition-label: 48 h
Where a name gives a salt, the structure may show the parent alone.
Record form. Attribute: cell count. Fill in for each entry.
Numbers only.

The molecule CCC(=O)OC(OP(=O)(CCCCc1ccccc1)CC(=O)N1C[C@H](C2CCCCC2)C[C@H]1C(=O)O)C(C)C (stereo partly drawn) [Fosinopril·Na] (concentration: 25 µM) , tested on Jurkat, showed cell count of 0.562

So the reported cell count for CC1=C(CC(=O)O)c2cc(F)ccc2/C1=C\c1ccc([S+](C)[O-])cc1 (stereo not drawn) [Sulindac] (concentration: 25 µM) , on Jurkat, turned out to be 0.782

Observed cell count on Jurkat, entry CN(C)CCCN1c2ccccc2CCc2ccc(Cl)cc21 [Clomipramine·HCl] (concentration: 25 µM) , equals 0.454

Note to self: cell count of CN(C)CCCC1(c2ccc(F)cc2)OCc2cc(C#N)ccc21 (stereo not drawn) [Citalopram·HBr] (concentration: 25 µM) with Jurkat was 1.15

Tested on Jurkat, the item COc1cc2nc(N(C)CCCNC(=O)C3CCCO3)nc(N)c2cc1OC (stereo not drawn) [Alfuzosin] (concentration: 25 µM) showed cell count equal to 0.41

Here CC[C@]1(O)C[C@@H]2CN(CCc3c([nH]c4ccccc34)[C@@](C(=O)OC)(c3cc4c(cc3OC)N(C)[C@H]3[C@@](O)(C(=O)OC)[C@H](OC(C)=O)[C@]5(CC)C=CCN6CC[C@]43[C@@H]65)C2)C1 [Vinblastine Sulfate] (concentration: 25 nM) was tested on Jurkat, and its cell count came to 0.0701

For every listed record, write down its cell count.
1. O=C1CCc2cc(OCCCCc3nnnn3C3CCCCC3)ccc2N1 [Cilostazol] (concentration: 25 µM)
2. N[C@@H](C(=O)N[C@@H]1C(=O)N2C(C(=O)O)=C(Cl)CS[C@H]12)c1ccccc1 [Cefaclor] (concentration: 25 µM)
3. CC1(C)O[C@@H]2C[C@H]3[C@@H]4C[C@H](F)C5=CC(=O)CC[C@]5(C)[C@H]4[C@@H](O)C[C@]3(C)[C@]2(C(=O)CO)O1 [Flurandrenolide] (concentration: 25 µM)
4. Cc1cn([C@H]2C[C@H](N=[N+]=[N-])[C@@H](CO)O2)c(=O)[nH]c1=O [Zidovudine (3'-Azido-3'-Deoxythymidine)] (concentration: 25 µM)
5. Brc1c(NC2=NCCN2)ccc2nccnc12 [Brimonidine] (concentration: 25 µM)

1: 0.819; 2: 1.03; 3: 0.638; 4: 0.714; 5: 0.9

List the reported cell count of each molecule below.
1. CN(C)CCc1c[nH]c2ccc(Cn3cncn3)cc12 [Rizatriptan Benzoate] (concentration: 25 µM)
2. Nc1nc2c(ncn2COC(CO)CO)c(=O)[nH]1 [Ganciclovir] (concentration: 25 µM)

1. 0.844
2. 0.51
